Molecular target: serotoninergic 5-HT7 receptor (Homo sapiens, UniProt P34969)
Sequence (P34969 whole entry): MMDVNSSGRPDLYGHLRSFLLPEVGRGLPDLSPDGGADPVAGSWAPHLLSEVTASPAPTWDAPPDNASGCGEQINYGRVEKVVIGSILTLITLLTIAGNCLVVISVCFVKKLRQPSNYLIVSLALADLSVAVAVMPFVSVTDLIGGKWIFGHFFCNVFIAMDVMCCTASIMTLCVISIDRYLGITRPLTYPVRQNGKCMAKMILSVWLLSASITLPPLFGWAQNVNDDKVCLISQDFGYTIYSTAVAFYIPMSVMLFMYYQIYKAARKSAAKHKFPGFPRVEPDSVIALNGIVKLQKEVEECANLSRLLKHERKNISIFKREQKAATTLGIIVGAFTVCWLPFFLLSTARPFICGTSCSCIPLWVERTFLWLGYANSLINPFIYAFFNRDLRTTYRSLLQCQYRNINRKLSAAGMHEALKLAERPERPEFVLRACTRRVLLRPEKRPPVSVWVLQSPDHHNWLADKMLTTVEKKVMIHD
Assay: Binding assay 5-HT7 (h), [3H]LSD, CHO cells
Set-up: expressed in transfected cells; host or cells: CHO cells
Conditions: read-out: 5-HT7
Method: The specific ligand binding to the receptors is defined as the difference between the total binding and the nonspecific binding determined in the presence of an excess of so unlabelled ligand. The specific Ligand binding to the receptor is defined as the difference between total and non-specific binding determined in the presence of an excess of unlabelled ligand. The compounds were tested at a concentration of 1×10^−6 M, and scintillation counting was the method of detection of ligand binding.
Each entry below carries its reported inhibition at 1 µM.
quantity.kind: inhibition at 1 µM (%)

| record.smiles | unit.info | numeric.value |
| --- | --- | --- |
| O=S(=O)(NCCCCN1CCN(c2cccc3c2OCCO3)CC1)c1csc2ccccc12 | % | 95 |
| O=c1[nH]c2cccc(N3CCN(CCCNS(=O)(=O)c4ccc5ccccc5c4)CC3)c2[nH]1 | % | 95 |
| O=S(=O)(NCCCN1CCC(c2noc3cc(F)ccc23)CC1)c1ccc(F)c(F)c1 | % | 86 |
| Cc1[nH]c2ccc(Cl)cc2c1C1=CCN(CCNS(=O)(=O)c2cccc(O)c2)CC1 | % | 76 |
| Cc1[nH]c2ccc(Cl)cc2c1C1=CCN(CCCNS(=O)(=O)c2cccc(F)c2)CC1 | % | 81 |
| O=S(=O)(NCCCN1CCC(c2noc3cc(F)ccc23)CC1)c1ccc2cn[nH]c2c1 | % | 100 |
| O=S(=O)(NCCCN1CCN(c2nsc3ccccc23)CC1)c1ccc(C(F)(F)F)cc1 | % | 101 |
| O=C1COc2c(cccc2N2CCN(CCCCNS(=O)(=O)c3ccc(Cl)s3)CC2)N1 | % | 67 |
| O=S(=O)(NCCCCN1CCN(c2noc3ccccc23)CC1)c1cccc2ccccc12 | % | 100 |
| O=S(=O)(NCCCCN1CCN(c2noc3ccccc23)CC1)c1ccc(Cl)cc1 | % | 97 |
| Cc1c(S(=O)(=O)NCCCN2CCC(c3noc4cc(F)ccc34)CC2)sc2ccc(Cl)cc12 | % | 87 |
| O=S(=O)(NCCCCN1CCN(c2nsc3ccccc23)CC1)c1cccc(C(F)(F)F)c1 | % | 93 |
| O=S(=O)(NCCCCN1CCN(c2cccc3c2OCCO3)CC1)c1ccc2cc(Cl)ccc2c1 | % | 96 |
| O=S(=O)(NCCCN1CCN(c2nsc3ccccc23)CC1)c1ccc(Cl)c(Cl)c1 | % | 99 |
| O=S(=O)(NCCCCN1CCN(c2nsc3ccccc23)CC1)c1ccc2ccccc2c1 | % | 97 |
| O=S(=O)(NCCCCN1CCC(c2noc3cc(F)ccc23)CC1)c1ccc2c(c1)OCO2 | % | 99 |
| O=S(=O)(NCCCCN1CCN(c2cccc3[nH]ccc23)CC1)c1cnc2ccccn12 | % | 96 |
| O=S(=O)(NCCCCN1CCN(c2cccc3[nH]ccc23)CC1)c1ccc(C(F)(F)F)cc1 | % | 100 |
| O=S(=O)(NCCCCN1CCN(c2nsc3ccccc23)CC1)c1csc2ccccc12 | % | 97 |
| Cc1c(S(=O)(=O)NCCCCN2CCN(c3noc4ccccc34)CC2)sc2ccc(F)cc12 | % | 99 |
| O=S(=O)(NCCCCN1CCN(c2noc3ccccc23)CC1)c1ccc(Cl)c(Cl)c1 | % | 88 |
| O=S(=O)(NCCCCN1CCC(c2noc3cc(F)ccc23)CC1)c1ccsc1 | % | 85 |
| O=c1[nH]c2ccc(S(=O)(=O)NCCCCN3CCN(c4noc5ccccc45)CC3)cc2o1 | % | 99 |
| Cc1[nH]c2ccc(Cl)cc2c1C1=CCN(CCCCNS(=O)(=O)c2cccc3ccccc23)CC1 | % | 53 |
| O=S(=O)(NCCCCN1CCN(c2cccc3c2OCCO3)CC1)c1ccc(-c2ccccc2)cc1 | % | 88 |
| O=S(=O)(NCCCN1CCC(c2noc3cc(F)ccc23)CC1)c1ccc2cc(Cl)ccc2c1 | % | 98 |
| COc1cccc(S(=O)(=O)NCCCN2CCC(c3noc4cc(F)ccc34)CC2)c1 | % | 64 |
| O=c1[nH]c2ccc(S(=O)(=O)NCCCN3CCN(c4nsc5ccccc45)CC3)cc2o1 | % | 97 |
| O=S(=O)(NCCCCN1CCN(c2nsc3ccccc23)CC1)c1cccc(Br)c1 | % | 101 |
| O=S(=O)(NCCCCN1CCN(c2cccc3c2OCCO3)CC1)c1cccc(Cl)c1 | % | 66 |
| O=C1COc2c(cccc2N2CCN(CCCCNS(=O)(=O)c3cccc(F)c3)CC2)N1 | % | 81 |
| O=c1[nH]c2ccc(S(=O)(=O)NCCCCN3CCN(c4nsc5ccccc45)CC3)cc2o1 | % | 97 |
| O=S(=O)(NCCCCN1CCN(c2nsc3ccccc23)CC1)c1ccc(Cl)cc1 | % | 94 |

* * *

biological target: serotoninergic 5-HT6 receptor (Homo sapiens); experiment: Binding assay 5-HT6 (h), [3H]LSD, CHO cells; set-up: expressed in transfected cells; host or cells: CHO cells; details: read-out: 5-HT6
Sequence (P50406 whole entry): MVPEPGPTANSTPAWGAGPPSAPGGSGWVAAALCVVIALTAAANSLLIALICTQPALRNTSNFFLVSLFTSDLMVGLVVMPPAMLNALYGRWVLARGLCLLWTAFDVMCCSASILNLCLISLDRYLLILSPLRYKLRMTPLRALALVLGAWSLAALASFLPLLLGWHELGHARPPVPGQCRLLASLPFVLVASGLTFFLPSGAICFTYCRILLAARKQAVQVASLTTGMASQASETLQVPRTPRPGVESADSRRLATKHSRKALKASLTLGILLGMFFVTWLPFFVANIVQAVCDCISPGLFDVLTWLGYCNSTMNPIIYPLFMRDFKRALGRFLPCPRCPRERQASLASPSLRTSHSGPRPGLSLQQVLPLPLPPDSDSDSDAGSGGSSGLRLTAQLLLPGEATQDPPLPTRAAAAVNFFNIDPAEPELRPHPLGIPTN
quantity.kind: inhibition at 1 µM (%)

| record.smiles | system.tested | numeric.value |
| --- | --- | --- |
| O=S(=O)(NCCCCN1CCC(c2noc3cc(F)ccc23)CC1)c1cccc(Br)c1 | serotoninergic 5-HT6 receptor (Homo sapiens) | 84 |
| N#Cc1cccc(S(=O)(=O)NCCCCN2CCN(c3noc4ccccc34)CC2)c1 | serotoninergic 5-HT6 receptor (Homo sapiens) | 64 |
| O=S(=O)(NCCCN1CCC(c2noc3cc(F)ccc23)CC1)c1csc2ccccc12 | serotoninergic 5-HT6 receptor (Homo sapiens) | 95 |
| O=S(=O)(NCCCCN1CCC(c2noc3cc(F)ccc23)CC1)c1cccc(C(F)(F)F)c1 | serotoninergic 5-HT6 receptor (Homo sapiens) | 90 |
| O=S(=O)(NCCCCN1CCN(c2cccc3[nH]ccc23)CC1)c1cccc(F)c1 | serotoninergic 5-HT6 receptor (Homo sapiens) | 98 |
| O=S(=O)(NCCCN1CCC(c2noc3cc(F)ccc23)CC1)c1ccc(Cl)c(Cl)c1 | serotoninergic 5-HT6 receptor (Homo sapiens) | 97 |
| O=S(=O)(NCCCCN1CCN(c2noc3ccccc23)CC1)c1ccc(F)c(Cl)c1 | serotoninergic 5-HT6 receptor (Homo sapiens) | 78 |
| O=S(=O)(NCCCN1CCN(c2cccc3c2OCCO3)CC1)c1ccc2cc(Cl)ccc2c1 | serotoninergic 5-HT6 receptor (Homo sapiens) | 37 |

* * *

molecular target: UniProt P28223; assay: Binding assay 5-HT2A (h), [3H]ketanserin, HEK-293 cells; set-up: expressed in transfected cells; host or cells: HEK-293 cells; settings: read-out: 5-HT2A
Sequence (P28223 whole entry): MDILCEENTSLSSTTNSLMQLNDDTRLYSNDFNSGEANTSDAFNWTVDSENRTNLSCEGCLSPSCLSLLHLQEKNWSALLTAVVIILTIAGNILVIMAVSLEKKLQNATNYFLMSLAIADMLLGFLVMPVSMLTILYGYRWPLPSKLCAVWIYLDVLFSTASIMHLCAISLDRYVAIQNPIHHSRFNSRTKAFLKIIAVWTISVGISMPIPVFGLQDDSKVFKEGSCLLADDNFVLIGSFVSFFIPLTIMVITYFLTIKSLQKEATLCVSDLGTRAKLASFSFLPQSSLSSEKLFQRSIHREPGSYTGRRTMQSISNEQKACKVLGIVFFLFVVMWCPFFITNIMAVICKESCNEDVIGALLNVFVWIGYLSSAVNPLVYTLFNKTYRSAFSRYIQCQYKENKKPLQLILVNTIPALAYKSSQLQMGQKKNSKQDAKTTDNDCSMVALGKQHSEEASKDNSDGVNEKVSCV
Each entry below carries its reported inhibition at 1 µM.

| record.smiles | system.tested | inhibition at 1 µM (%) |
| --- | --- | --- |
| O=S(=O)(NCCCCN1CCN(c2cccc3c2OCCO3)CC1)c1ccc2c(c1)OCO2 | UniProt P28223 | 55 |
| O=S(=O)(NCCN1CC=C(c2c[nH]c3ccc(F)cc23)CC1)c1cccc(F)c1 | UniProt P28223 | 83 |
| O=S(=O)(NCCCN1CCC(c2noc3cc(F)ccc23)CC1)c1cc2ccccc2o1 | UniProt P28223 | 108 |
| O=S(=O)(NCCCCN1CCC(c2noc3cc(F)ccc23)CC1)c1ccc(F)cc1 | UniProt P28223 | 95 |
| O=S(=O)(NCCCCN1CCN(c2cccc3[nH]ccc23)CC1)c1ccc2ccccc2c1 | UniProt P28223 | 98 |
| O=S(=O)(NCCCCN1CCN(c2noc3ccccc23)CC1)c1ccc(Br)cc1 | UniProt P28223 | 97 |
| O=S(=O)(NCCCN1CCN(c2nsc3ccccc23)CC1)c1cccc(O)c1 | UniProt P28223 | 90 |
| O=S(=O)(NCCN1CCN(c2nsc3ccccc23)CC1)c1ccc2ccccc2c1 | UniProt P28223 | 99 |

* * *

Each entry below carries its reported inhibition at 1 µM.
biological target: serotoninergic receptor 5-HT2C (Homo sapiens, UniProt P28335); construct: expressed in transfected cells; host or cells: HEK-293 cells; experiment: Binding assay 5-HT2C (h), [3H]mesulergine, HEK-293 cells; details: read-out: 5-HT2C [%]
Sequence (P28335 33-458): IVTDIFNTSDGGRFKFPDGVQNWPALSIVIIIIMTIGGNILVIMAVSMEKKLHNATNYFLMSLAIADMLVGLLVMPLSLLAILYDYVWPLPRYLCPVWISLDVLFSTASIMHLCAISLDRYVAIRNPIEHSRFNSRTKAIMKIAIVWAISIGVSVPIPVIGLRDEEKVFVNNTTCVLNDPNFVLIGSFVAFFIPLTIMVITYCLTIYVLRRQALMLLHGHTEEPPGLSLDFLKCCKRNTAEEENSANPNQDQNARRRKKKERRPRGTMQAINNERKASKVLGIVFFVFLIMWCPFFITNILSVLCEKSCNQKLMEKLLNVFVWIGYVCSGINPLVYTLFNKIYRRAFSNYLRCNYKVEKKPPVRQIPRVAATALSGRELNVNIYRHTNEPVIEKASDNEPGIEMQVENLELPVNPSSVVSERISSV

| record.smiles | inhibition at 1 µM |
| --- | --- |
| Cc1cccc(S(=O)(=O)NCCCCN2CCN(c3noc4ccccc34)CC2)c1 | 23% |
| O=S(=O)(NCCCCN1CCN(c2nsc3ccccc23)CC1)c1cc2ccc(Cl)cc2s1 | 96% |
| O=S(=O)(NCCCCN1CCN(c2cccc3[nH]ccc23)CC1)c1ccc2ccccc2c1 | 19% |
| O=S(=O)(NCCCCN1CCC(c2noc3cc(F)ccc23)CC1)c1ccc2c(c1)OCO2 | 46% |

* * *

Each entry below carries its reported inhibition at 1 µM.
biological target: serotonine transporter (SERT) receptor (Homo sapiens); construct: expressed in transfected cells; host or cells: CHO cells; test: Binding assay SERT (h), [3H]imipramine, CHO cells; conditions: read-out: SERT [%]
Sequence (P31645 whole entry): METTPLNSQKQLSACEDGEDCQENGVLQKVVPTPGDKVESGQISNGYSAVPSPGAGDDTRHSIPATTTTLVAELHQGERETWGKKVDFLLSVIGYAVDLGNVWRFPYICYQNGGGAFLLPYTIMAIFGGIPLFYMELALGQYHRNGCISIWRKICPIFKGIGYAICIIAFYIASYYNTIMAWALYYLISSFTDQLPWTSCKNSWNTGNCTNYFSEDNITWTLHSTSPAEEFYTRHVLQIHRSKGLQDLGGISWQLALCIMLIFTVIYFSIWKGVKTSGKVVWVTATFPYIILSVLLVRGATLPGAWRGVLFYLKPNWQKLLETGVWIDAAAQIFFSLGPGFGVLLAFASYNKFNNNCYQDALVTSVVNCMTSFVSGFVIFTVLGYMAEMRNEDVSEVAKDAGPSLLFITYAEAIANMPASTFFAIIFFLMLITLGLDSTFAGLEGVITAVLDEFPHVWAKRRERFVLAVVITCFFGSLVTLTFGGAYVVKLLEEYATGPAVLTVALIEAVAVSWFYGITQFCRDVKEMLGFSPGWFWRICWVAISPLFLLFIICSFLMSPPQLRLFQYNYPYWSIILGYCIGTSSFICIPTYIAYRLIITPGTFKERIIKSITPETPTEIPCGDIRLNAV
quantity.kind: inhibition at 1 µM

| molecule | result |
| --- | --- |
| O=S(=O)(NCCCN1CCC(c2noc3cc(F)ccc23)CC1)c1cccc(C(F)(F)F)c1 [Compound 335] | -25% |
| Cc1cccc(S(=O)(=O)NCCCCN2CCN(c3cccc4c3OCCO4)CC2)c1 [Compound 395] | 69% |
| O=c1[nH]c2cccc(N3CCN(CCCCNS(=O)(=O)c4ccc5ccccc5c4)CC3)c2[nH]1 [Compound 419] | -21% |
| O=S(=O)(NCCCN1CCC(c2noc3cc(F)ccc23)CC1)c1cccc(Cl)c1 [Compound 106] | 2% |
| O=S(=O)(NCCCCN1CCN(c2cccc3[nH]ccc23)CC1)c1cccc(Cl)c1 [Compound 113] | 28% |
| O=S(=O)(NCCCN1CCN(c2cccc3c2OCCO3)CC1)c1ccc2c(c1)CCO2 [Compound 417] | -11% |
| O=S(=O)(NCCCCN1CCC(c2noc3cc(F)ccc23)CC1)c1ccc2cc(Cl)ccc2c1 [Compound 97] | 61% |
| O=S(=O)(NCCCCN1CCC(c2noc3cc(F)ccc23)CC1)c1ccc2c(c1)CCO2 [Compound 317] | -17% |
